- method-notes: qHTS assay to identify small molecule antagonists of the estrogen related receptor (ERR) signaling pathway from Tox21 library - cell viability counter screen (AID 1224834); also: nearly all actives have a fitted effect of over 30% in size
- stated-conditions: ERR reporter cells viability, CellTiter-Fluor, 17.5 h; series mostly up to 92.4 µM
Inconclusive results are not listed. Activity calls are given as the source filed them. Calls follow the shape of the dose curve; as a rule, active = well fitted cell-killing curve with a large enough effect in the repeat runs; inconclusive = weak or mixed curves; inactive = flat fitted curve, though single readings scatter.
Outcome (select one): 1 for active, -1 for inactive

Answer briefly: the call reported for `NC(=O)c1cc([N+](=O)[O-])cc([N+](=O)[O-])c1` in this assay.
-1

Answer briefly: the call reported for `CC(=O)CCc1ccc2c(c1)OCO2` in this assay.
-1

Answer briefly: the call reported for `CC1=C(C(=O)Nc2ccccc2)S(=O)(=O)CCO1` in this assay.
1

Answer briefly: the call reported for `O=C(Cc1ccccc1)OCc1ccccc1` in this assay.
-1

Answer briefly: the call reported for `CS(=O)(=O)c1cc(C(F)(F)F)ccc1C(=O)c1cnoc1C1CC1` in this assay.
-1

Answer briefly: the call reported for `COP(=S)(OC)Oc1c(Cl)cc(C)cc1Cl` in this assay.
-1

Answer briefly: the call reported for `COc1cc(C[C@@H](C)N)c(OC)cc1C` in this assay.
-1

Answer briefly: the call reported for `Cc1cc(C)c(C(=O)P(=O)(C(=O)c2c(C)cc(C)cc2C)c2ccccc2)c(C)c1` in this assay.
-1

Answer briefly: the call reported for `O=C(CCN1CC1)OCC(CO)(COC(=O)CCN1CC1)COC(=O)CCN1CC1` in this assay.
-1

Answer briefly: the call reported for CCC(C)n1c(=O)[nH]c(C)c(Br)c1=O (centres undefined) in this assay.
-1

Answer briefly: the call reported for CCC(Cl)[N+](=O)[O-] (centres undefined) in this assay.
-1

Answer briefly: the call reported for O=c1oc2ccccc2c(O)c1C1CCCc2ccccc21 (centres undefined) in this assay.
-1

Answer briefly: the call reported for CN/C(=N\[N+](=O)[O-])NCC1CCOC1 (centres undefined) in this assay.
-1

Answer briefly: the call reported for `C[C@H]1CCC[C@H](O)CCCCCc2cc(O)cc(O)c2C(=O)O1` in this assay.
1

Answer briefly: the call reported for `CCCSC(=O)Cl` in this assay.
-1

Answer briefly: the call reported for `COC(=O)C1=CCCN(C)C1` in this assay.
-1

Answer briefly: the call reported for `Cc1nc(N)nc(N)n1` in this assay.
-1

Answer briefly: the call reported for `CC(C)CC#N` in this assay.
-1

Answer briefly: the call reported for `O=P(O)(Oc1ccccc1)Oc1ccccc1` in this assay.
-1

* * *

- target-or-test-system: Estrogen receptor (Homo sapiens) (UniProt P03372)
- Sequence (P03372 whole entry, looked up): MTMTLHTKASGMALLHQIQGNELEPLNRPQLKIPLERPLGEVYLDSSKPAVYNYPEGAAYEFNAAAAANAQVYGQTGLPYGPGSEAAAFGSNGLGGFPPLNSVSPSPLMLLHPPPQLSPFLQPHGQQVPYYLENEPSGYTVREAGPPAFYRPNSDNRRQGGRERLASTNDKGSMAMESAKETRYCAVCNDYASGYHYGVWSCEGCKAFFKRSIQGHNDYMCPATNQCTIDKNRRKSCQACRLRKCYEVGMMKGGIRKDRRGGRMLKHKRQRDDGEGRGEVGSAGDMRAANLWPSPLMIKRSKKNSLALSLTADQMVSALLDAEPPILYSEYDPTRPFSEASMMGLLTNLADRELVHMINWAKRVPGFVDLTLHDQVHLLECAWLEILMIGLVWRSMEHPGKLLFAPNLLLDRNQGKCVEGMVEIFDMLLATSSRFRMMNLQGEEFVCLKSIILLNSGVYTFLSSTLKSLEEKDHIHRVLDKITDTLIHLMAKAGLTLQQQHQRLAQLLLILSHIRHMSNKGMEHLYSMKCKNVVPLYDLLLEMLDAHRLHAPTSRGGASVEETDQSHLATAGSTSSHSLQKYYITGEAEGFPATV
- method-notes: qHTS assay to identify small molecule antagonists of the estrogen receptor alpha (ER-alpha) signaling pathway (AID 743069)
- stated-conditions: HEK293 ER-alpha-UAS-bla, beta-lactamase ratio, antagonist mode; series mostly up to 69.4 µM
- Description: National Center for Advancing Translational Sciences [NCATS] NIH Chemical Genomics Center [NCGC] U.S. Environmental Protection Agency [EPA] National Institutes of Environmental Health Sciences [NIEHS] National Toxicology Program [NTP] U.S. Food and Drug Administration [FDA] Estrogen receptor (ER), a nuclear hormone receptor, plays an important role in development, metabolic homeostasis and reproduction. […]
Calls of active or inactive are those of the source. Calls come from the whole dose curve; as a rule, active = well fitted curve in the direction sought with a large enough effect in the signal ratio in the repeat runs (not every such curve was filed as active); inconclusive = weak or mixed curves, or effect the other way; inactive = no such curve, though single readings can be large or run the other way; the % refers to the signal ratio.
Outcome (select one): Yes for active, No for inactive

Answer briefly: the call reported for `CCN(CC)c1nc(C)cc(OP(=S)(OC)OC)n1` in this assay.
No

Answer briefly: the call reported for `CCOP(=S)(OCC)Oc1nc(Cl)n(C(C)C)n1` in this assay.
No

Answer briefly: the call reported for `CCOP(=O)(N=C1SCCS1)OCC` in this assay.
No

Answer briefly: the call reported for `CCCCc1c(C)nc(NCC)[nH]c1=O` in this assay.
No

Answer briefly: the call reported for `N#CCBr` in this assay.
No

Answer briefly: the call reported for `O=P(O)(Oc1ccccc1)Oc1ccccc1` in this assay.
No

Answer briefly: the call reported for `N#CCNCC#N` in this assay.
No

Answer briefly: the call reported for `CCCSC(=O)Cl` in this assay.
No

Answer briefly: the call reported for `COc1cccc2c1cc([N+](=O)[O-])c1c(C(=O)O)cc3c(c12)OCO3` in this assay.
Yes

Answer briefly: the call reported for `C#CCN1C(=O)COc2cc(F)c(N3C(=O)C4=C(CCCC4)C3=O)cc21` in this assay.
No

Answer briefly: the call reported for C=CC1CC=CCC1 (centres undefined) in this assay.
No

Answer briefly: the call reported for `Nc1cc(Cl)ccc1O` in this assay.
No

Answer briefly: the call reported for `[Cl][Sn]([Cl])([Cl])[Cl]` in this assay.
No

Answer briefly: the call reported for `O=C(O)c1cccc(Cl)c1` in this assay.
No

Answer briefly: the call reported for `O=C(NCO)NCO` in this assay.
No

Answer briefly: the call reported for `CCN(Cc1ccc(Cl)nc1)/C(=C/[N+](=O)[O-])NC` in this assay.
No

Answer briefly: the call reported for OC(c1ccc(F)cc1)(c1cncnc1)c1ccccc1Cl (centres undefined) in this assay.
No

Answer briefly: the call reported for `CCS(=O)(=O)C(C)(C)S(=O)(=O)CC` in this assay.
No

Answer briefly: the call reported for `CC(=O)C(Cl)Cl` in this assay.
No

* * *

- target-or-test-system: Cytochrome P450 2C19 (Homo sapiens)
- method-notes: Cytochrome P450 Family 2 Subfamily C Member 19 (CYP2C19) small molecule antagonists: luciferase reporter qHTS assay (AID 1671197); also: nearly all actives have a fitted effect of over 65% in size
- stated-conditions: P450-Glo CYP2C19 enzyme, luciferin luminescence, 1 h; series mostly up to 115 µM
Results filed as inconclusive are left out. Calls of active or inactive are those of the source. The call rests on the fitted dose curve; in most records, active means well fitted inhibition curve with a large enough effect in the repeat runs; inconclusive means weak or mixed curves; inactive means no such curve, though single readings can be large or run the other way.
Outcome (select one): 1 = active, 0 = inactive

Answer briefly: the call reported for `O=C1CN=C(c2ccccc2)c2cc([N+](=O)[O-])ccc2N1` in this assay.
0

Answer briefly: the call reported for N#CC(CCc1ccc(Cl)cc1)(Cn1cncn1)c1ccccc1 (stereo unspecified) in this assay.
1

Answer briefly: the call reported for CC(C)CC(N(C)C)C1(c2ccc(Cl)cc2)CCC1 (stereo unspecified) in this assay.
1

Answer briefly: the call reported for `O=[N+]([O-])c1cc(Cl)c(Cl)c(Cl)c1` in this assay.
0

Answer briefly: the call reported for `CC1(C(=O)Nc2ccc(O)c(Cl)c2Cl)CCCCC1` in this assay.
1

Answer briefly: the call reported for COc1ccc2c(c1OC)CN1CCc3cc4c(cc3C1C2)OCO4 (stereo unspecified) in this assay.
1

Answer briefly: the call reported for COC(=O)C(C)Oc1ccc(Oc2ccc(Cl)cc2Cl)cc1 (stereo unspecified) in this assay.
1

Answer briefly: the call reported for `CN1CCC(N(Cc2ccccc2)c2ccccc2)CC1` in this assay.
0

Answer briefly: the call reported for `CNC(=O)Oc1c(C(C)(C)C)cc(C)cc1C(C)(C)C` in this assay.
1

Answer briefly: the call reported for `CCOC(=O)NC(=S)Nc1ccccc1NC(=S)NC(=O)OCC` in this assay.
1

Answer briefly: the call reported for `NC(=O)O` in this assay.
0

* * *

- method-notes: qHTS RealTime-Glo MT Cell Viability Assay in HepG2 cells - 16 hour (AID 1224885); also: nearly all actives have a fitted effect of over 50% in size
- stated-conditions: RealTime-Glo luminescence; series mostly up to 76.8 µM
- Description: U.S. Tox21 Program National Center for Advancing Translational Sciences [NCATS] NIH Chemical Genomics Center [NCGC] U.S. Environmental Protection Agency [EPA] National Institutes of Environmental Health Sciences [NIEHS] National Toxicology Program [NTP] U.S. Food and Drug Administration [FDA] Tox21 Assay Overview: Measure of cell viability is critical in the cell-base assay. Analysis of cell viability is necessary for the characterization of cell responses to cytotoxic drugs and environmental stress. […]
Inconclusive results are not listed. Active and inactive are the calls of the source. Calls come from the whole dose curve; as a rule, active = well fitted cell-killing curve with a large enough effect in the repeat runs; inconclusive = weak or mixed curves; inactive = flat fitted curve, though single readings scatter.
Outcome (select one): label 1 for active, label 0 for inactive

Answer briefly: the call reported for `O=[N+]([O-])c1ccc2c3c(cccc13)CC2` in this assay.
label 0

Answer briefly: the call reported for `CCCCC(=O)Cl` in this assay.
label 0

Answer briefly: the call reported for `CCOP(=S)(OCC)SCSc1ccc(Cl)cc1` in this assay.
label 0

Answer briefly: the call reported for COP(N)(=S)Oc1ccccc1C(=O)OC(C)C (centres undefined) in this assay.
label 0

Answer briefly: the call reported for `COc1cc(C[C@@H](C)N)c(OC)cc1C` in this assay.
label 0

Answer briefly: the call reported for `CNC(=O)Oc1c(C(C)(C)C)cc(C)cc1C(C)(C)C` in this assay.
label 0

Answer briefly: the call reported for `ClCC(Cl)Cl` in this assay.
label 0

Answer briefly: the call reported for `CCC(=O)C(CCN(C)C)(c1ccccc1)c1ccccc1` in this assay.
label 0

Answer briefly: the call reported for `Cc1cc(C)nc(Nc2ccccc2)n1` in this assay.
label 0

Answer briefly: the call reported for N#CC(CCc1ccc(Cl)cc1)(Cn1cncn1)c1ccccc1 (centres undefined) in this assay.
label 1

Answer briefly: the call reported for `ClC(Cl)C(Cl)Cl` in this assay.
label 0

Answer briefly: the call reported for `C=C(C)CN(CC)c1c([N+](=O)[O-])cc(C(F)(F)F)cc1[N+](=O)[O-]` in this assay.
label 0

Answer briefly: the call reported for `CCOC(=O)CP(=O)(OCC)OCC` in this assay.
label 0

Answer briefly: the call reported for `CCN(CC)c1nc(C)cc(OP(=S)(OC)OC)n1` in this assay.
label 0

Answer briefly: the call reported for `O=C(Nc1ccccc1)c1ccccc1I` in this assay.
label 0

Answer briefly: the call reported for `O=C(CCCN1CCC(n2c(=O)[nH]c3ccccc32)CC1)c1ccc(F)cc1` in this assay.
label 0

Answer briefly: the call reported for CC(C(=O)c1ccccc1)N(C)C (centres undefined) in this assay.
label 0

Answer briefly: the call reported for Fc1ccc(C2(Cn3cncn3)OC2c2ccccc2Cl)cc1 (centres undefined) in this assay.
label 0

Answer briefly: the call reported for `Nc1cnn(-c2ccccc2)c(=O)c1Cl` in this assay.
label 0

Answer briefly: the call reported for `CCC(=O)c1ccccc1` in this assay.
label 0

Answer briefly: the call reported for `O=[N+]([O-])c1cc(Cl)c(Cl)c(Cl)c1` in this assay.
label 0

Answer briefly: the call reported for `Clc1ccccc1N1CCNCC1` in this assay.
label 0

Answer briefly: the call reported for `NC(=S)C(N)=S` in this assay.
label 0

Answer briefly: the call reported for `CS(=O)(=O)c1cc(C(F)(F)F)ccc1C(=O)c1cnoc1C1CC1` in this assay.
label 0

Answer briefly: the call reported for `COc1cccc2c1cc([N+](=O)[O-])c1c(C(=O)O)cc3c(c12)OCO3` in this assay.
label 0

Answer briefly: the call reported for `COC(=O)C1=CCCN(C)C1` in this assay.
label 0

Answer briefly: the call reported for `CC(=O)CCc1ccc2c(c1)OCO2` in this assay.
label 0

Answer briefly: the call reported for `C[C@H]1CCC[C@H](O)CCCCCc2cc(O)cc(O)c2C(=O)O1` in this assay.
label 0

Answer briefly: the call reported for `CCOC(=O)C(c1c(O)c2ccccc2oc1=O)c1c(O)c2ccccc2oc1=O` in this assay.
label 0

Answer briefly: the call reported for CC1COC2(c3ccccc3Cl)c3cc(Cl)ccc3NC(=O)CN12 (centres undefined) in this assay.
label 0

Answer briefly: the call reported for CCC(C)n1c(=O)[nH]c(C)c(Br)c1=O (centres undefined) in this assay.
label 0

Answer briefly: the call reported for `COC(=O)c1ccccc1S(=O)(=O)NC(=O)Nc1nc(C)cc(C)n1` in this assay.
label 0

Answer briefly: the call reported for `COc1cc(OC)nc(Sc2cccc(Cl)c2C(=O)O)n1` in this assay.
label 0

Answer briefly: the call reported for O=C(O)C(Br)CBr (centres undefined) in this assay.
label 0
